tested on: F4 (K88) fimbriae on intact ETEC strain SP11 cells (Escherichia coli (ETEC-F4+, strain SP11)); test: whole-cell binding with qPCR quantification of eluted aptamer; conditions: intact SP11 cells, about 10^8 CFU/mL; 1 mM CaCl2, 0.5 mM MgCl2; 138 mM NaCl, 20 mM Tris-HCl pH 7.4, 2.7 mM KCl, 1 mM CaCl2, 0.5 mM MgCl2, 0.1 mg/mL salmon sperm DNA; 30 min at 37 C, 500 rpm; washes with 0.05% Tween 20
Measure: Kd

*Q* Item CGTACGGTCGACGCTAGCACACTCTTTTGCTCGTGTTTTTGCCTGTTACATAAAATGAATCAGTGGATGTTTCCTTCTCACGTGGAGCTCGGATCC [Apt31] has what recorded Kd?
*A* 81.8 nM
